Quick reference: R0 5.5/7.4 of the listed items.
Target: T1, human serum albumin (human, UniProt P02768 25-609)
T1 construct: Immobilised on SPR chips; also added in solution in the FcRn occupancy assays; also called HSA; humanSA
Test summary: SPR Biacore 3000, HSA on chip, ratio of R0 at pH 5.5 and pH 7.4

Binder	R0 5.5/7.4
2H11-v3 fused at the C-terminus of Fc-ABDEG (two-armed) (Fc fusion, not shown: Fc-ABDEG domain) GGGGSGGGGSGGGGSGGGGSELQVVESGGGLVQAGGSLRLSCAASGRTFRSNTMGWFRQAPGKEREFVAAITWSGGTTYYADSVKGRFAISGDNAKNTVYLQMNSLKPEDTAVYYCAAEGAKWEPWNGIYHPADFGSWGQGTQVTVSS	19.9
TA-Fc-ABDEG-2H11 (Fc fusion, also called 2H11 parental (two-armed Fc-ABDEG-20GS-Cterm fusion); not shown: Fc-ABDEG domain) GGGGSGGGGSGGGGSGGGGSELQVVESGGGLVQAGGSLRLSCAASGRTFRSNTMGWFRQAPGKEREFVAAITWSGGTTYYADSVKGRFAISGDNAKNTVYLQMNSLKPEDTAVYYCAAEGPKWEPWNGIYHPADFGSWGQGTQVTVSS	3
2H11-v15 fused at the C-terminus of Fc-ABDEG (two-armed) (Fc fusion, not shown: Fc-ABDEG domain) GGGGSGGGGSGGGGSGGGGSELQVVESGGGLVQAGGSLRLSCAASGRTFRSNTMGWFRQAPGKEREFVAAITWSGGTTYYADSVKGRFAISGDNAKNTVYLQMNSLKPEDTAVYYCAAEGPKWEPWNGIYHPAAFGSWGQGTQVTVSS	370
2H11-v12 fused at the C-terminus of Fc-ABDEG (two-armed) (Fc fusion, not shown: Fc-ABDEG domain) GGGGSGGGGSGGGGSGGGGSELQVVESGGGLVQAGGSLRLSCAASGRTFRSNTMGWFRQAPGKEREFVAAITWSGGTTYYADSVKGRFAISGDNAKNTVYLQMNSLKPEDTAVYYCAAEGPKWEPWNGIAHPADFGSWGQGTQVTVSS	14.9
2H11-v16 fused at the C-terminus of Fc-ABDEG (two-armed) (Fc fusion, not shown: Fc-ABDEG domain) GGGGSGGGGSGGGGSGGGGSELQVVESGGGLVQAGGSLRLSCAASGRTFRSNTMGWFRQAPGKEREFVAAITWSGGTTYYADSVKGRFAISGDNAKNTVYLQMNSLKPEDTAVYYCAAEGPKWEPWNGIYHPADAGSWGQGTQVTVSS	16
